# EXPERIMENTAL DETAILS: xn = mol fraction of the nth substance listed, in the solute-free solvent
# CONDITION CONTEXT: 298.15 K; x2 = 0.4
READOUT KIND: solubility (g/100 g solution)
Give bare numbers.

For every item in the list below, what is its measured solubility (g/100 g solution)?
1. Cc1ncc(C[n+]2csc(CCO)c2C)c(N)n1.O=[N+]([O-])[O-] + O + CC(C)O
2. CCCCCOC(=O)Nc1nc(=O)n(C2OC(C)C(O)C2O)cc1F (configuration not stated) + CCOC(C)=O + CCCCCC
3. S=c1[nH]ncs1 + CCCO + O
4. Cc1ncc(C[n+]2csc(CCO)c2C)c(N)n1.O=[N+]([O-])[O-] + O + CC(C)=O
5. Cc1ncc(C[n+]2csc(CCO)c2C)c(N)n1.O=[N+]([O-])[O-] + O + CO

1: 0.199; 2: 0.187; 3: 12.7; 4: 0.298; 5: 1.34

Give measured solubility (g/100 g solution) for every item shown.
1. OCCN(CCO)c1nc(N2CCCCC2)c2nc(N(CCO)CCO)nc(N3CCCCC3)c2n1 + CCO + O
2. CCCCCOC(=O)Nc1nc(=O)n(C2OC(C)C(O)C2O)cc1F (configuration not stated) + CCOC(C)=O + CCCCCCC

1. 3.74
2. 0.106

Batch request: solubility (g/100 g solution) for each of the following compounds.
1. S=c1[nH]ncs1 + CCO + O
2. S=c1[nH]ncs1 + CO + O
3. OCCN(CCO)c1nc(N2CCCCC2)c2nc(N(CCO)CCO)nc(N3CCCCC3)c2n1 + CO + O
4. S=c1[nH]ncs1 + CC(C)=O + O

1. 11.3
2. 6.73
3. 0.312
4. 24.8

// lookup solubility (g/100 g solution) for OCCN(CCO)c1nc(N2CCCCC2)c2nc(N(CCO)CCO)nc(N3CCCCC3)c2n1 + CC(C)O + O
9.61

###

I'd appreciate it if you could supply solubility (g/100 g solution) values for the items below.
# EXPERIMENTAL DETAILS: xn = mol fraction of the nth substance listed, in the solute-free solvent
# CONDITION CONTEXT: 303.15 K; x2 = 0.8
Numbers only.

Hey, can you go through the list below and give me solubility (g/100 g solution) for every item?
1. CCCCCOC(=O)Nc1nc(=O)n(C2OC(C)C(O)C2O)cc1F (stereo not given) + CCOC(C)=O + CCCCCCC
2. CC(N)C(=O)O (stereo not given) + O + CC(C)O
3. OCCN(CCO)c1nc(N2CCCCC2)c2nc(N(CCO)CCO)nc(N3CCCCC3)c2n1 + CCO + O
4. S=c1[nH]ncs1 + CO + O
5. S=c1[nH]ncs1 + CCCO + O

1. 1.6
2. 2.62
3. 8.76
4. 18.5
5. 14.6

###

# EXPERIMENTAL DETAILS: xn = mol fraction of the nth substance listed, in the solute-free solvent
# CONDITION CONTEXT: 288.15 K; x2 = 0.9
READOUT KIND: solubility (g/100 g solution)
Answers are plain numbers.

Dear reader, for each entry below, please note its solubility (g/100 g solution).
1. S=c1[nH]ncs1 + CO + O
2. S=c1[nH]ncs1 + CCO + O
3. S=c1[nH]ncs1 + CCCO + O
4. Cc1ncc(C[n+]2csc(CCO)c2C)c(N)n1.O=[N+]([O-])[O-] + O + CC(C)O

[13.7, 11.8, 8.99, 1.83]

Batch lookup, solubility (g/100 g solution) per entry.
1. Cc1ncc(C[n+]2csc(CCO)c2C)c(N)n1.O=[N+]([O-])[O-] + O + CC(C)=O
2. S=c1[nH]ncs1 + CC(C)=O + O
3. Cc1ncc(C[n+]2csc(CCO)c2C)c(N)n1.O=[N+]([O-])[O-] + O + CO

[2.54, 24.2, 1.7]

###

# EXPERIMENTAL DETAILS: xn = mol fraction of the nth substance listed, in the solute-free solvent
# CONDITION CONTEXT: 313.15 K; x2 = 0.08908
READOUT KIND: solubility (g/100 g solution)
Give bare numbers.

Cc1[nH]c(=O)c(C#N)cc1-c1ccncc1 + CCO + O : 0.00251
Nc1cccc(S(=O)(=O)c2cccc(N)c2)c1 + CCO + O : 0.619
CC(C)OC(=O)C(C)NP(=O)(OCC1OC(n2ccc(=O)[nH]c2=O)C(C)(F)C1O)Oc1ccccc1 (centres undefined) + CCO + O : 9.04

Let us move to another entry and its solubility (g/100 g solution).
Quick one: solubility (g/100 g solution) of COc1cc2c(cc1OC)-c1cc3ccc(OC)c(OC)c3c[n+]1CC2.[Cl-] + CCO + O ?
4.28

###

# EXPERIMENTAL DETAILS: xn = mol fraction of the nth substance listed, in the solute-free solvent
# CONDITION CONTEXT: 323.15 K; x2 = 0.3
So I've got a bunch of compounds here, and I need their solubility (g/100 g solution) values.
Give bare numbers.

S=c1[nH]ncs1 + CCO + O : 21.9
OCCN(CCO)c1nc(N2CCCCC2)c2nc(N(CCO)CCO)nc(N3CCCCC3)c2n1 + CC(C)O + O : 27.3
CC(N)C(=O)O (centres undefined) + O + CCCO : 0.147
CC(N)C(=O)O (centres undefined) + O + CO : 0.627
S=c1[nH]ncs1 + CO + O : 13.9
OCCN(CCO)c1nc(N2CCCCC2)c2nc(N(CCO)CCO)nc(N3CCCCC3)c2n1 + CCO + O : 12.5
CC(N)C(=O)O (centres undefined) + O + CC(C)=O : 0.0878
OCCN(CCO)c1nc(N2CCCCC2)c2nc(N(CCO)CCO)nc(N3CCCCC3)c2n1 + CO + O : 0.543

Could you report solubility (g/100 g solution) for every entry in the following list?
1. S=c1[nH]ncs1 + CCCO + O
2. CCCCCOC(=O)Nc1nc(=O)n(C2OC(C)C(O)C2O)cc1F (centres undefined) + CCOC(C)=O + CCCCCCC

25.1
0.22

Quick one: give me solubility (g/100 g solution) for each item below, same order please.
1. CC(N)C(=O)O (centres undefined) + O + CC(C)O
2. CCCCCOC(=O)Nc1nc(=O)n(C2OC(C)C(O)C2O)cc1F (centres undefined) + CCOC(C)=O + CCCCCC
3. S=c1[nH]ncs1 + CC(C)=O + O
4. CC(N)C(=O)O (centres undefined) + O + CCO

0.113
0.276
34.4
0.196

###

# EXPERIMENTAL DETAILS: xn = mol fraction of the nth substance listed, in the solute-free solvent
# CONDITION CONTEXT: 318.15 K; x2 = 0.7297
READOUT KIND: solubility (g/100 g solution)

Solved cases (5 shown):
Nc1cccc(S(=O)(=O)c2cccc(N)c2)c1 + CC(C)O + O : 2.09
CN1CCN(C2=Nc3cc(Cl)ccc3Nc3ccccc32)CC1 + CC(C)O + O : 3.06
c1ccc2[nH]c(-c3cscn3)nc2c1 + CCCO + O : 0.986
c1ccc2[nH]c(-c3cscn3)nc2c1 + CC(C)O + O : 0.534
Cc1[nH]c(=O)c(C#N)cc1-c1ccncc1 + CC(C)O + O : 0.0274

Then there is this compound:
Which measured solubility (g/100 g solution) value corresponds to Nc1nccnc1Cl + CC(C)O + O ?
1.93

###

# EXPERIMENTAL DETAILS: xn = mol fraction of the nth substance listed, in the solute-free solvent
# CONDITION CONTEXT: 323.15 K; x2 = 0.03225
READOUT KIND: solubility (g/100 g solution)

Use the examples below as a reference point.
Nc1cccc(S(=O)(=O)c2cccc(N)c2)c1 + CC(C)O + O : 0.517
c1ccc2[nH]c(-c3cscn3)nc2c1 + CCCO + O : 0.0173
CN1CCN(C2=Nc3cc(Cl)ccc3Nc3ccccc32)CC1 + CC(C)O + O : 0.0576
Cc1[nH]c(=O)c(C#N)cc1-c1ccncc1 + CC(C)O + O : 0.00376
Nc1nccnc1Cl + CC(C)O + O : 0.227

With those in mind, consider the next compound.
So what's the measured solubility (g/100 g solution) for this one? c1ccc2[nH]c(-c3cscn3)nc2c1 + CC(C)O + O
0.00978

###

Give measured solubility (g/100 g solution) for each item. Keep answers brief.
# EXPERIMENTAL DETAILS: xn = mol fraction of the nth substance listed, in the solute-free solvent
# CONDITION CONTEXT: 293.15 K; x2 = 0.7297

Go through the list and state solubility (g/100 g solution) for each entry.
1. Nc1cccc(S(=O)(=O)c2cccc(N)c2)c1 + CC(C)O + O
2. CN1CCN(C2=Nc3cc(Cl)ccc3Nc3ccccc32)CC1 + CC(C)O + O
3. Nc1nccnc1Cl + CC(C)O + O
4. Cc1[nH]c(=O)c(C#N)cc1-c1ccncc1 + CC(C)O + O
5. c1ccc2[nH]c(-c3cscn3)nc2c1 + CC(C)O + O

0.686
1.54
0.836
0.0141
0.268

Fill in the blank: the reported solubility (g/100 g solution) of c1ccc2[nH]c(-c3cscn3)nc2c1 + CCCO + O is ____.
0.553
